This section presents binders with their documented IC50, inhibition of 100 pM GCG-stimulated luciferase activity, mfGCGR reporter cells values.
- Experimental system: T1, monkey (Macaca fascicularis) GCGR (full-length, on HEK293 reporter cells) (monkey (Macaca fascicularis), UniProt P47871 26-477 (human entry))
- T1 chain: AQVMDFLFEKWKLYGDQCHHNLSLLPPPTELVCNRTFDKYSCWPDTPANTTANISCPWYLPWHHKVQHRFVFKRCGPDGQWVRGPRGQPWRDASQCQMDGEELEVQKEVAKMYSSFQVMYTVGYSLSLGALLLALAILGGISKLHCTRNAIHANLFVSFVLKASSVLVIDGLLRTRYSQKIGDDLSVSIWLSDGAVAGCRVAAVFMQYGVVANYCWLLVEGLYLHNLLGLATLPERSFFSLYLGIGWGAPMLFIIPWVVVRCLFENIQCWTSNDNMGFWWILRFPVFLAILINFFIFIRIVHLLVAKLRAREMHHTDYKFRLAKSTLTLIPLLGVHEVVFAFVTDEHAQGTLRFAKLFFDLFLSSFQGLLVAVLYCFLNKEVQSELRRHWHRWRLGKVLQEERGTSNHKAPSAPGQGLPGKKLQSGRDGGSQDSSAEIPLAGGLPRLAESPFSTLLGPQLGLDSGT
- Protocol summary: cell-based or functional assay
Unit nM implied. Number only.

// H4H1765N (antibody, V domains shown, Anti-GCGR antibody from hybridoma; the controls are called isotype-matched hIgG4) VH: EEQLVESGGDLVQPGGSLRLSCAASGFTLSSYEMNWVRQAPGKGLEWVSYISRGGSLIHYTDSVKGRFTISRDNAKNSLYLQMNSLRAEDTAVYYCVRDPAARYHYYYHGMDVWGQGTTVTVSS VL: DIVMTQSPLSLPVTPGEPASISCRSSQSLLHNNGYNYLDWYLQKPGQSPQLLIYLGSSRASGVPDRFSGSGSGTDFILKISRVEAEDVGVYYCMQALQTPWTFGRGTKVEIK : IC50, inhibition of 100 pM GCG-stimulated luciferase activity, mfGCGR reporter cells value = 75.2

// H4H1331P (antibody, V domains shown, Fully human anti-GCGR antibody; the controls are called isotype-matched hIgG4) VH: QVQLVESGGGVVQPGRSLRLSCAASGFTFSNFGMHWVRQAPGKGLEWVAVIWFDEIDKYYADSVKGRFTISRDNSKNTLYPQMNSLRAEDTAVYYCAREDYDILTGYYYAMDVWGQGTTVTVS VL: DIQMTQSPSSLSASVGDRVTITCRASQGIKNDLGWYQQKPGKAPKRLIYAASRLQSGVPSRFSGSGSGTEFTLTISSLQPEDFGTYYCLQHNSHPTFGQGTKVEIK : IC50, inhibition of 100 pM GCG-stimulated luciferase activity, mfGCGR reporter cells value = 8.29

// H4H1328P (antibody, V domains shown, Fully human anti-GCGR antibody; the controls are called isotype-matched hIgG4) VH: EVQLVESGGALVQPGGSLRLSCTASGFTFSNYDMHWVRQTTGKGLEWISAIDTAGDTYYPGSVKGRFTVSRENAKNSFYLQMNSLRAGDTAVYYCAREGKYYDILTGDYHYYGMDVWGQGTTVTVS VL: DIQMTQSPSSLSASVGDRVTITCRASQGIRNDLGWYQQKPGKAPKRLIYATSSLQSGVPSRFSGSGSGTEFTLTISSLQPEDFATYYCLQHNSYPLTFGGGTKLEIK : IC50, inhibition of 100 pM GCG-stimulated luciferase activity, mfGCGR reporter cells value = 2.73

Below: the item to evaluate.
// H4H1327P (antibody, V domains shown, also called anti-GCGR (hIgG4) antibody designated H4H1327P) VH: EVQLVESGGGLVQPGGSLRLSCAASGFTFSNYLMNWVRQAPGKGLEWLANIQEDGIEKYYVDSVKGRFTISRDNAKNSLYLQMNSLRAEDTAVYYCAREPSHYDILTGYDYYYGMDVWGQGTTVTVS VL: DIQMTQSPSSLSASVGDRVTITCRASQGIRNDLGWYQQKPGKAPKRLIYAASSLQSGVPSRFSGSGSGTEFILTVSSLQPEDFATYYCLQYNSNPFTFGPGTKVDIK : IC50, inhibition of 100 pM GCG-stimulated luciferase activity, mfGCGR reporter cells value = 2.56

Just for reference, patent US20130251728A1 is where these values come from.
